pIC50 values by entry
# measurementTarget: KRAS G12C (Homo sapiens (Human), UniProt P01116+P62937, G12C)
# Sequence (P01116-2 other isoform, or with tags, fused parts or gaps G12C): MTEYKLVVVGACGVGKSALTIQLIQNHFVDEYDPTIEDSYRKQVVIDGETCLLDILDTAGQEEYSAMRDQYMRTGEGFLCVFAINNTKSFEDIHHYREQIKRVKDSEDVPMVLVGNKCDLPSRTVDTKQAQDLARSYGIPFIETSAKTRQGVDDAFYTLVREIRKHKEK
# Sequence (P62937 whole entry): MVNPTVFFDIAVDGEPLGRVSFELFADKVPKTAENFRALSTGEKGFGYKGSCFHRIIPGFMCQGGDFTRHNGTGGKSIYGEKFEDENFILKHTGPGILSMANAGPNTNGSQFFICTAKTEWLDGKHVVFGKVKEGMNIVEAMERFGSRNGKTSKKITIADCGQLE
# assayText: Ras-Raf disruption/FRET/MOA assay (BRAF RBD, Cyclophilin A)
# Format: biochemical
# cond: read-out: KRAS G12C FRET IC50
pIC50: −log10 of the molar value.
measurementLabel: pIC50

molecule	result
CCn1c(-c2cccnc2[C@H](C)OC)c2c3cc(ccc31)-c1cc(O)cc(c1)C[C@H](NC(=O)C(=C(C)C)N(C)C(C)=O)C(=O)N1CCC[C@H](N1)C(=O)OCC(C)(C)C2 [Compound A142]	5.00 to 6.00
CCn1c(-c2cccnc2[C@H](C)OC)c2c3cc(ccc31)-c1csc(n1)C[C@H](NC(=O)[C@H](C(C)C)N(C)C(=O)N1CC(N)C1)C(=O)N1CCC[C@H](N1)C(=O)OCC(C)(C)C2 [Compound A343]	7.00 to 8.00
CCn1c(-c2cccnc2[C@H](C)OC)c2c3cc(ccc31)-c1cc(O)cc(c1)C[C@H](NC(=O)[C@H](C(C)C)N(C)C(=O)[C@@H]1CCN(C(=O)[C@]3(C)CCCN3C)C1)C(=O)N1CCC[C@H](N1)C(=O)OCC(C)(C)C2 [Compound A342]	7.00 to 8.00
CCn1c(-c2cccnc2[C@H](C)OC)c2c3cc(ccc31)-c1csc(n1)C[C@H](NC(=O)[C@H](C(C)C)N(C)C(=O)N1CC(OC(F)(F)F)C1)C(=O)N1CCC[C@H](N1)C(=O)OCC(C)(C)C2 [Compound A330]	7.00 to 8.00
